- System: K4 kissing-loop RNA reporter;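 also: bound reporter read as fluorescence of individual clusters on recovered sequencing chips by microscopy, with normalized cluster intensities fitted with a binding model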
- Protocol: apparent KD of K4 kissing-loop reporter; higher = weaker reporter binding
- Assay Conditions: Eterna round: R107; input ligand: arginine 13.2 mM
Collected apparent KD of K4 kissing-loop reporter values appear next to each entry.
A number alone suffices; assume nM.

[
  {
    "Sequence Content": "AGGAUCCGUCGACAAAAGUCGACAAUAACCAAGGAUAUGACGAAAGUCAGAAGGUGGUCUUAUGACCAGUGAUGUUGGUGGAUCC [FmnA 15 #SwitchBubble #K4Late]",
    "apparent KD of K4 kissing-loop reporter / nM": 245
  }
]

Record for UCCUUUUUUGCCAGUGAUGUUGGACAGGAAGGAGCGGGCAUAAGCCCAGGUAGGUCGCCUGUCAACUUUCUUAUAGCCCUAAGGU [Edveza] under target or system K4 kissing-loop RNA reporter: apparent KD of K4 kissing-loop reporter reported as 226

The reported K4 kissing-loop RNA reporter apparent KD of K4 kissing-loop reporter of UGUCAUUGGUCGGCCGCCACUAGAAGGUCAAAGACCAUAGAGUGAUGUUCUAAGACGAAAGUCACUAGGACCGGGACCGAUGACU [TrypBS 1 #SwitchBubble #K4Middle] is 1080

K4 kissing-loop RNA reporter assay, sequence UGUACCGAGUCAGGAUAUGUCGUCGAAAGACGAAAUGGAGUGAUGUUCCUUAAACUGCGAAAGCAGACAGAAGGGACUUGGUACU [FmnBS 29 #SwitchBubble #StaticStem #DoubleMagnetSystem] , recorded apparent KD of K4 kissing-loop reporter = 278

Considering CUUGGAAGGACGGCCGCCACUCGACAGUGAUGUUGUCCGAGUUGGUAACGCAGUGAUGUUGUGUCGAGGACCGGGUCCUAGGAAU [Exclusion Tryptophan B GF 26] , its apparent KD of K4 kissing-loop reporter with K4 kissing-loop RNA reporter was recorded as 149
